These data points were gathered from patent US20200146973A1.

- procedureDetails: Pharmacokinetics in rats after I.V. injection or oral administration, plasma drug concentration quantified by HPLC
- experimentalParameters: Lewis, rat, plasma, iv, 12 mg/kg
metricName: Cmax (ng/mL)
All answers are understood in ng/mL, so give the number only.

Kindly note the recorded Cmax for `Nc1ccn([C@@H]2O[C@H](CO)[C@@H](O)C2(F)F)c(=O)n1` , which is 16700

----------
- procedureDetails: in vivo
- experimentalParameters: Lewis, rat, iv, 12 mg/kg
metricName: half-life (h)
All answers are understood in h, so give the number only.

Kindly note the recorded half-life for `CC(=O)O[C@H]1C(=O)[C@@]2(C)[C@H]([C@H](OC(=O)c3ccccc3)[C@]3(O)C[C@H](OC(=O)[C@H](O)[C@@H](NC(=O)c4ccccc4)c4ccccc4)C(C)=C1C3(C)C)[C@]1(OC(C)=O)CO[C@@H]1C[C@@H]2O` , which is 10.2

----------
- procedureDetails: in vivo
- experimentalParameters: Lewis, rat, iv, 12 mg/kg
metricName: MRT (h)
All answers are understood in h, so give the number only.

Kindly note the recorded MRT for `CC(=O)O[C@H]1C(=O)[C@@]2(C)[C@H]([C@H](OC(=O)c3ccccc3)[C@]3(O)C[C@H](OC(=O)[C@H](O)[C@@H](NC(=O)c4ccccc4)c4ccccc4)C(C)=C1C3(C)C)[C@]1(OC(C)=O)CO[C@@H]1C[C@@H]2O` , which is 1.66

----------
- procedureDetails: Pharmacokinetics in rats after I.V. injection or oral administration, plasma drug concentration quantified by HPLC
- experimentalParameters: Lewis, rat, plasma, iv, 12 mg/kg
metricName: clearance (mL/min/kg)
All answers are understood in mL/min/kg, so give the number only.

Kindly note the recorded clearance for `Nc1ccn([C@@H]2O[C@H](CO)[C@@H](O)C2(F)F)c(=O)n1` , which is 4

----------
- procedureDetails: in vivo
- experimentalParameters: Lewis, rat, po, 12 mg/kg
metricName: half-life (h)
All answers are understood in h, so give the number only.

Kindly note the recorded half-life for CC(=O)O[C@H]1C(=O)[C@@]2(C)[C@H]([C@H](OC(=O)c3ccccc3)[C@]3(O)C[C@H](OC(=O)[C@H](O)[C@@H](NC(=O)c4ccccc4)c4ccccc4)C(C)=C1C3(C)C)[C@]1(OC(C)=O)CO[C@@H]1C[C@@H]2O [PTX, paclitaxel] , which is 14.4

----------
- procedureDetails: Pharmacokinetics in rats after I.V. injection or oral administration, plasma drug concentration quantified by HPLC
- experimentalParameters: Lewis, rat, plasma, iv, 12 mg/kg
metricName: AUC (µg·h/mL)
All answers are understood in µg·h/mL, so give the number only.

Kindly note the recorded AUC for `Nc1ccn([C@@H]2O[C@H](CO)[C@@H](O)C2(F)F)c(=O)n1` , which is 41.1

----------
- procedureDetails: Pharmacokinetics in rats after I.V. injection or oral administration, plasma drug concentration quantified by HPLC
- experimentalParameters: Lewis, rat, plasma, po, 12 mg/kg
metricName: half-life (h)
All answers are understood in h, so give the number only.

Kindly note the recorded half-life for `Nc1ccn([C@@H]2O[C@H](CO)[C@@H](O)C2(F)F)c(=O)n1` , which is 6.13

----------
- procedureDetails: in vivo
- experimentalParameters: Lewis, rat, po, 12 mg/kg
metricName: MRT (h)
All answers are understood in h, so give the number only.

Kindly note the recorded MRT for `CC(=O)O[C@H]1C(=O)[C@@]2(C)[C@H]([C@H](OC(=O)c3ccccc3)[C@]3(O)C[C@H](OC(=O)[C@H](O)[C@@H](NC(=O)c4ccccc4)c4ccccc4)C(C)=C1C3(C)C)[C@]1(OC(C)=O)CO[C@@H]1C[C@@H]2O` , which is 7.22
